This collection of values is drawn from patent US10577373B2.

system: GM-CSF induced STAT5 phosphorylation mediated by the JAK2/JAK2 homdimeric complex; assay: GM-CSF Induced pSTAT5 in Human PBMC; conditions: Homo sapiens, PBMC, 20 min, read-out: PBMC_GMCSF_pSTAT5 IC50, human PBMC; GM-CSF 5 ng/mL for 20 minutes; pSTAT5
pIC50: −log10 of the molar value.
PARAMETER: pIC50

* CNc1cc(Nc2cc(C)cn(-c3cnn(C)c3)c2=O)nc2c(C(=O)NC3CCC3)cnn12 [I-234] | < 5.60
* CNc1cc(Nc2cccn(C3CCCCC3)c2=O)nc2c(C(=O)N[C@H]3C[C@H]3F)cnn12 [I-305] | < 4.90
* [2H]C([2H])([2H])Nc1cc(Nc2cccnc2OC2CC2)nc2c(C(=O)N[C@@H]3C[C@@H]3F)cnn12 (stereo in doubt) [I-375] | < 4.30
* CNc1cc(Nc2cccn(C3CC4(COC4)C3)c2=O)nc2c(C(=O)N[C@@H]3C[C@@H]3F)cnn12 [I-551] | < 5.60
* CNc1cc(Nc2cccn(C3CCC4(CC3)OCCO4)c2=O)nc2c(C(=O)NC3CC3)cnn12 [I-393] | < 4.90

Any idea what pIC50 was measured for CNc1cc(Nc2cccn(-c3cnc(C)o3)c2=O)nc2c(C(=O)N[C@H]3C[C@H]3F)cnn12 [I-718] ?
< 4.90

Quick check: pIC50 of CNc1cc(Nc2cccn([C@H]3CCCN(CCF)C3)c2=O)nc2c(C(=O)N[C@@H]3CC[C@H]3OC)cnn12 [I-1059] ?
< 4.30

* * *

system: IL-12 induced STAT4 phophorylation mediated by Tyk2/JAK2 (heterodimeric complex); experiment: IL-12 Induced pSTAT4 in Human PBMC; assay type: cell-based; conditions: 1.7 ng/mL IL-12
PARAMETER: IC50

* CNc1cc(Nc2cccn(C3CCOCC3)c2=O)nc2c(C(=O)NC3CC3)cnn12 | < 0.1 µM
* CNc1cc(-c2cn(C(C)C)c3ncc(Cl)cc23)nc2c(C(N)=O)cnn12 | < 0.1 µM
* [2H]C([2H])([2H])Oc1ncc(F)cc1Nc1cc(NC)n2ncc(C(=O)NC3CC3)c2n1 | < 0.1 µM

Recorded IC50 of CNc1cc(Nc2cccnc2OC)nc2c(C(=O)N[C@@H]3CCC[C@H]3O)cnn12 , please.
< 0.1 µM

What does the record list as IC50 for CNc1cc(Nc2cccn(-c3ccn(C)n3)c2=O)nc2c(C(=O)NC3CCC3)cnn12 ?
< 0.1 µM

Recorded IC50 for CNc1cc(Nc2cccc(N3CCC34COC4)n2)nc2c(C(=O)N[C@H]3C[C@H]3F)cnn12 , please?
< 0.1 µM

Report IC50 for CNc1cc(Nc2cccn(-c3ccccn3)c2=O)nc2c(C(=O)N[C@@H]3CC[C@H]3OC)cnn12 (stereo in doubt) [I-816] please.
< 0.1 µM

Quick one: IC50 for CNc1cc(Nc2cccn(-c3ccc(N4CCOCC4)cn3)c2=O)nc2c(C(=O)NC3CCC3)cnn12 ?
< 0.1 µM

* * *

Reported IC50 values for the following compounds.
test system: GM-CSF induced STAT5 phosphorylation mediated by the JAK2/JAK2 homdimeric complex; assay: GM-CSF Induced pSTAT5 in Human PBMC; conditions: Homo sapiens, PBMC, 20 min, read-out: PBMC_GMCSF_pSTAT5 IC50, human PBMC; GM-CSF 5 ng/mL for 20 minutes; pSTAT5

Some compounds with recorded IC50:
- CNc1cc(Nc2cccn(-c3cncc(C)c3)c2=O)nc2c(C(=O)NC3CCC3)cnn12: > 50 µM
- CNc1cc(Nc2cccn([C@H]3CC[C@@H]3O)c2=O)nc2c(C(=O)N[C@@H]3C[C@@H]3F)cnn12: > 50 µM
- CNc1cc(Nc2cc(Cl)cn(-c3cnn(C)c3)c2=O)nc2c(C(=O)N[C@H]3C[C@H]3F)cnn12: > 12.5 µM
- CNc1cc(Nc2cccn([C@H]3CC[C@@H](OC)CC3)c2=O)nc2c(C(=O)N[C@H]3C[C@H]3F)cnn12: > 2.5 µM
- CNc1cc(Nc2cc(Cl)cn(-c3cc(C)n(C)n3)c2=O)nc2c(C(=O)N[C@H]3C[C@H]3F)cnn12: > 12.5 µM

For CNc1cc(Nc2cccn(-c3ccc(C)nn3)c2=O)nc2c(C(=O)NC3CCC3)cnn12 , what is its reported IC50?
> 50 µM

What does the data say about its IC50? Entry: CNc1cc(Nc2cccn(-c3ncc(C)s3)c2=O)nc2c(C(=O)N[C@H]3C[C@H]3F)cnn12
> 2.5 µM

Quick one: IC50 for CNc1cc(Nc2cccn(-c3cccc(F)c3)c2=O)nc2c(C(=O)N[C@@H]3CC[C@H]3O)cnn12 ?
> 50 µM
